tested on: BT-549 breast; experiment: NCI tumour cell line growth inhibition, 48 h
MEASURED_PARAMETER: GI50

Answered examples (3):
| COMPOUND | MEASUREMENT_TARGET | GI50 |
| --- | --- | --- |
| O=C(Nc1ccc(-n2cc(-c3ccncc3)c(-c3ccc(Cl)c(O)c3)n2)cc1)c1cc(Cl)cc(Cl)c1 | BT-549 breast | 2.53 µM |
| CN(C)CCCC1(c2ccc(F)cc2)OCc2cc(-c3ccc4cc[nH]c4c3)ccc21 (stereo not given) | BT-549 breast | 2.35 µM |
| O=C(N/N=C/c1cc2ccccc2c2ccccc12)c1cc(O)c(O)c(O)c1 | BT-549 breast | 3.74 µM |

Input: I would be grateful if you could share the reported GI50 for "CS(=O)(=O)c1ccc(C(F)(F)F)cc1NC(=O)Nc1cnc(Oc2ccc(-c3cc(Cl)cnc3N)cc2)nc1" .
Output: 2.26 µM

Input: I would be grateful if you could share the reported GI50 for "C=CCSc1n[nH]c(-c2cccs2)n1" .
Output: > 100 µM
